# assay-target: CDK2 (Homo sapiens (Human), UniProt P24941)
# test-protocol: CDK2 Inhibition Assay
# Format: biochemical
# reported-conditions: read-out: CDK2 IC50
property-measured: IC50

{"columns": ["line-notation", "assay-target", "property-measured", "recorded-result"],
 "data": [
  ["CCN1CCN(Cc2ccc(Nc3ncc(F)c(-c4cc(F)c5nn6c(c5c4)CCC6)n3)nc2)CC1", "CDK2 (Homo sapiens (Human), UniProt P24941)", "IC50", "> 10000 nM"],
  ["CN(C)[C@H]1CCN(c2ccc(Nc3ncc(F)c(-c4cc(F)c5nc6n(c5c4)C(C)(C)CC6)n3)nc2)C1", "CDK2 (Homo sapiens (Human), UniProt P24941)", "IC50", "65.5 nM"],
  ["CCN1CCC(COc2ccc(Nc3ncc(F)c(-c4cc(F)c5nc6n(c5c4)C(C)(C)CC6)n3)nc2)CC1", "CDK2 (Homo sapiens (Human), UniProt P24941)", "IC50", "368 nM"],
  ["CC1(C)CCc2nc3c(F)cc(-c4nc(Nc5ccc(OCC6CCN(CCCO)CC6)cn5)ncc4F)cc3n21", "CDK2 (Homo sapiens (Human), UniProt P24941)", "IC50", "44.9 nM"]
]}
